// data source = paper PMC6099102

- procedure-text: Stability and protonation constants and pMn of the Mn(II) complexes (pH-potentiometry and/or 1H relaxometry)
- Format: physicochemical
- settings: calculated at pH = 7.4, cM = cL = 10^−5 M; I = 0.15 M NaCl, 25 °C
endpoint-label: pMn

# count of solved cases: 3
INSERT INTO measurements (compound, endpoint_label, recorded_measurement) VALUES
  ('O=P(O)(O)CN1CCN(CP(=O)(O)O)CCN(CP(=O)(O)O)CCN(CP(=O)(O)O)CC1', 'pMn', 6.43),
  ('O=C(CN1CCN(CC(=O)N2CCCCC2)Cc2cccc(n2)CN(CC(=O)N2CCCCC2)CC1)N1CCCCC1.[Mn+2] [[Mn(PC3AM^Pip)]^2+]', 'pMn', 8.86),
  ('O=C(O)CNC(=O)CN1CCN(CC(=O)NCC(=O)O)Cc2cccc(n2)CN(CC(=O)NCC(=O)O)CC1', 'pMn', 8.37);

Consider the additional compound presented here.
Exam item: Record request: pMn value, item O=C(O)CN1CCNCCN(CC(=O)O)CCN(CC(=O)O)CC1
Marked response: 8.66

====

- procedure-text: Dissociation kinetics of the Mn(II) complexes (acid catalyzed dissociation, metal or ligand exchange reactions)
- Assay type: physicochemical
- settings: half-life of dissociation calculated for 0.1 M H+; I = 0.15 M NaCl, 25 °C
Catalogue of t1/2 0.1 M HCl readings, one per entry.
Please reply with the bare figure in min and do not write the unit itself.

# count of solved cases: 4
INSERT INTO assay_data (molecule, unit_text, recorded_measurement) VALUES
  ('NC(=O)CN1CCN(CC(N)=O)Cc2cccc(n2)CN(CC(N)=O)CC1.[Mn+2] [[Mn(PC3AM^H)]^2+]', 'min', 10.8),
  ('NC(=O)CN1CCN(CC(N)=O)CCN(CC(N)=O)CCN(CC(N)=O)CC1.[Mn+2] [[Mn(DOTAM)]^2+]', 'min', 7.17),
  ('NC(=O)CN1CCNCCN(CC(N)=O)CCN(CC(N)=O)CC1.[Mn+2] [[Mn(DO3AM^H)]^2+]', 'min', 0.123),
  ('O=C(CN1CCN(CC(=O)N2CCCCC2)Cc2cccc(n2)CN(CC(=O)N2CCCCC2)CC1)N1CCCCC1.[Mn+2] [[Mn(PC3AM^Pip)]^2+]', 'min', 25);

Exam item: Record request: t1/2 0.1 M HCl value, item O=C([O-])CNC(=O)CN1CCN(CC(=O)NCC(=O)[O-])Cc2cccc(n2)CN(CC(=O)NCC(=O)[O-])CC1.[Mn+2] [[Mn(PC3AM^Gly)]^−]
Marked response: 5.83

====

- procedure-text: Longitudinal water proton relaxivity (r1p) of the Mn(II) complexes
- Type: physicochemical
- settings: 0.5 T field strength, 25 °C and pH = 7.4
endpoint-label: r1p (mM⁻¹ s⁻¹)
Please reply with the bare figure in mM⁻¹ s⁻¹ and do not write the unit itself.

# count of solved cases: 3
INSERT INTO measurements (molecule, recorded_measurement) VALUES
  ('O=C(CN1CCN(CC(=O)N2CCCCC2)Cc2cccc(n2)CN(CC(=O)N2CCCCC2)CC1)N1CCCCC1.[Mn+2] [[Mn(PC3AM^Pip)]^2+]', 1.28),
  ('O=C([O-])CNC(=O)CN1CCN(CC(=O)NCC(=O)[O-])Cc2cccc(n2)CN(CC(=O)NCC(=O)[O-])CC1.[Mn+2] [[Mn(PC3AM^Gly)]^−]', 1.44),
  ('O=C([O-])CN1CCOCCN(CC(=O)[O-])CCN(CC(=O)[O-])CC1.[Mn+2] [[Mn(ODO3A)]^−]', 1.40);

Exam item: Record request: r1p value, item NC(=O)CN1CCNCCN(CC(N)=O)CCN(CC(N)=O)CC1.[Mn+2] [[Mn(DO3AM^H)]^2+]
Marked response: 1.33

Exam item: Record request: r1p value, item NC(=O)CN1CCN(CC(N)=O)CCN(CC(N)=O)CCN(CC(N)=O)CC1.[Mn+2] [[Mn(DOTAM)]^2+]
Marked response: 1.11

Exam item: Record request: r1p value, item NC(=O)CN1CCN(CC(N)=O)Cc2cccc(n2)CN(CC(N)=O)CC1.[Mn+2] [[Mn(PC3AM^H)]^2+]
Marked response: 1.21
